# Measurement Description: Tmax in healthy adult human subjects at 300 mg, po by HPLC method
# Assay type: ADME, organism-based
# Assay Context: in vivo

Compound: O=C1N=C([O-])NC1(c1ccccc1)c1ccccc1.[Na+] [PHENYTOIN SODIUM]
Tmax, h: 5.32

###

# Measurement Description: Drug elimination rate constant in healthy adult human subjects after consumption of 44 mg equivalent of piperine in form of pepper in soup (melahu rasam) by HPLC method
# Type: ADME, organism-based
# Assay Context: in vivo, po

Compound: O=C(/C=C/C=C/c1ccc2c(c1)OCO2)N1CCCCC1 [PIPERINE]
k el (s⁻¹): 2.22e-05
